assay.summary: Cytotoxicity against human MRC5 cells assessed as growth inhibition after 72 hrs by MTS assay
Format: toxicity, cell-based
endpoint.name: IC50 at 72 h

In: So what's the measured IC50 at 72 h for this one? `O=C1C(NCCN2CCOCC2)=C(Cl)C(=O)c2ncccc21`
Out: > 2000 nM

----------
assay.summary: Cytotoxicity against human HEL 299 cells assessed as growth inhibition after 72 hrs by MTS assay
Type: toxicity, cell-based
endpoint.name: IC50 at 72 h

In: So what's the measured IC50 at 72 h for this one? `O=C1C(NCCN2CCOCC2)=C(Cl)C(=O)c2ncccc21`
Out: > 2000 nM
